molecular target: T1, full-length WNV NS1 (strain 382-99), wild type, expressed in HEK293T cells (West Nile virus, New York 1999, strain …, UniProt Q9Q6P4); test: flow cytometry on cells; details: one partner purified
T1 construct: also called WT NS1; WT WNV NS1; source: HEK293T, transfected (pFM-A1.2), on fixed cells
T1 sequence (Q9Q6P4 792-1143): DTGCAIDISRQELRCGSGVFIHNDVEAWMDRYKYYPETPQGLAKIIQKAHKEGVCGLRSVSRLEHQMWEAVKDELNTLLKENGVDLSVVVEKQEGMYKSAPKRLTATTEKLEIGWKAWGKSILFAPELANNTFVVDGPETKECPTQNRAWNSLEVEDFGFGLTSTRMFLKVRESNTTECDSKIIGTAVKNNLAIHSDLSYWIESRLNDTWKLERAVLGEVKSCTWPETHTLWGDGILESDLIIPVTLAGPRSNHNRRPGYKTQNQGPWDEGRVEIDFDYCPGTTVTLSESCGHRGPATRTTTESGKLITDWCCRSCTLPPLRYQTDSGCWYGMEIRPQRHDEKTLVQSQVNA

[
  {
    "Binder": "WNV-99 (antibody, V domains shown) VH: QVRLVESGGGVVQPGRSLRLSCAASGFTLSSYGMHWVRQAPGKGLEWVAIISYDGSDKYYADSVKGRFTISRDNSKNTLYLQMNSLRPEDTAMYYCAKPDRSSSPFAHWGQGTLVTVSS VL: SYELTQPPSVSVSPGQTARITCSGDALPKQYAFWYQQKPGQTPVVVISKDSERPSGIPERFSGSSSGTTVTLTISGVQAEDEADYYCQSADSSGIWVFGGGTKLTVL",
    "binding result": "binds"
  },
  {
    "Binder": "WNV-95 (antibody, V domains shown) VH: QVQLQESGPGLVKPSQTLSLTCTVSGGSINSGAFYWSWIRQHPGKGLEWIGFIYYSGSTYYNPSLRSRVTISVDTSKNQFSLKLISVTAADTAVYYCARDRPDDPGPYFDSWGRGTLVTVSS VL: QSALTQPASVSGSPGQSITISCTGTSNDVGRYNSVSWYQQHPGNAPKLMIYDVSNRPSGVSNRFSGSKSGNTASLTISGLQAEDEADYYCSSYTSSSSVVFGGGTKLTVL",
    "binding result": "binds"
  },
  {
    "Binder": "WNV-120 (antibody, V domains shown) VH: KVQLEESGGGWVKPGRSLRLSCGASGFRFDDYAMHWVRQVPGKGLEWVSGISWDSDGIGYADSVKGRFTISRDNAKNSLFLQMNSLRAEDTALYYCVKDKGWLIQGRFDSWGQGIRVTVSS VL: DIVVTQSPDSLAVSLGERVTINCKTSQSVLYTFNNQNYLAWYQQKSGQPPKLLIYWASTRESGVPDRFSGSGSGTDFTLTISRLQAEDVAVYYCQQFYISPPGTFGQGTKVEIK",
    "binding result": "binds"
  }
]
